Bridge positions count the residues as written; N and C are the ends. Square brackets hold non-standard residues; d marks the D form. Peptide text beside a SMILES is read from it. 2Nal = N[C@@H](Cc1ccc2ccccc2c1)C(=O)O; 3Pal = N[C@@H](Cc1cccnc1)C(=O)O; Nle = CCCC[C@H](N)C(=O)O
Reported pKi for target or system UniProtKB P30874, by entry.
Sequence (P30874 whole entry): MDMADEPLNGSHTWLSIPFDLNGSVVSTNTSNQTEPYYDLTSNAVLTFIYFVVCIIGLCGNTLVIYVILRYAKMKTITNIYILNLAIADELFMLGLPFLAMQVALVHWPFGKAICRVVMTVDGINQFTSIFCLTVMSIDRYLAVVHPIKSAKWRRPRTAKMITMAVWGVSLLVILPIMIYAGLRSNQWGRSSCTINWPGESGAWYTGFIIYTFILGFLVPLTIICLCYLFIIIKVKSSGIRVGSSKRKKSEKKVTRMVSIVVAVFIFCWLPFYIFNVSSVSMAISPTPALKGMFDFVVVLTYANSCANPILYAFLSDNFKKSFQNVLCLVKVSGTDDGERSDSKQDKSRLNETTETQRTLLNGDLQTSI
Please express pKi as -log10 of the molar concentration.

molecule	reported.measurement
CCCC[C@@H]1NC(=O)[C@H](CCCCN)NC(=O)[C@@H](Cc2c[nH]c3ccccc23)NC(=O)[C@H](Cc2cccnc2)NC(=O)[C@H](NC(=O)[C@@H](N)Cc2ccc3ccccc3c2)CSSC[C@@H](C(=O)N[C@@H](Cc2ccc3ccccc3c2)C(N)=O)NC1=O (H-[2Nal][dC][3Pal][dW]K[Nle]C[2Nal]-NH2; disulfide 2-7)	7.12

Okay, next one:
Prompt: GET /values?readout=pKi&system=UniProtKB P30874&item= C[C@@H]1NC(=O)[C@H](CCCCN)NC(=O)[C@@H](Cc2c[nH]c3ccccc23)NC(=O)[C@H](Cc2cccnc2)NC(=O)[C@H](NC(=O)[C@@H](N)Cc2ccc3ccccc3c2)CSSC[C@@H](C(=O)N[C@@H](Cc2ccc3ccccc3c2)C(N)=O)NC1=O
Completion: 6.69

###

Target: Somatostatin receptor
Experiment: Antagonism of in vitro SRIF inhibition of GH release in rat in vitro pituitary cell assay
Format: functional, cell-based
Details: pituitary gland cell
readout.type: IC50 (µM)

a. CC(C)[C@H]1NC(=O)[C@H](CCCCN)NC(=O)[C@@H](Cc2c[nH]c3ccccc23)NC(=O)[C@H](Cc2cccnc2)NC(=O)[C@@H](NC(=O)[C@@H](N)Cc2ccc(I)cc2)CSSC[C@H](C(=O)N[C@@H](Cc2ccc(I)cc2)C(N)=O)NC1=O
b. CC(C)[C@H]1NC(=O)[C@H](CCCCN)NC(=O)[C@@H](Cc2c[nH]c3ccccc23)NC(=O)[C@H](Cc2cccnc2)NC(=O)[C@@H](NC(=O)[C@@H](N)Cc2cccc(F)c2)CSSC[C@H](C(=O)N[C@@H](Cc2cccc(F)c2)C(N)=O)NC1=O
Prompt: Given a and given b , which shows the smaller recorded IC50? // caller expects the label of the chosen entry
Completion: a
(a: 0.004 µM, b: 0.077 µM)

###

Molecular target: Somatostatin receptor
Experiment: Antagonism of in vitro SRIF inhibition of GH release in rat in vitro pituitary cell assay
Format: functional, cell-based
Details: pituitary gland cell
readout.type: IC50 (nM)

compound	unit.name	IC50
CC(C)[C@H]1NC(=O)[C@H](CCCCN)NC(=O)[C@@H](Cc2c[nH]c3ccccc23)NC(=O)[C@H](Cc2cccnc2)NC(=O)[C@@H](NC(=O)[C@H](N)Cc2ccc(F)cc2)CSSC[C@H](C(=O)N[C@H](Cc2ccc(F)cc2)C(N)=O)NC1=O	nM	74
CC(C)C[C@@H]1NC(=O)[C@H](CCCCN)NC(=O)[C@@H](Cc2c[nH]c3ccccc23)NC(=O)[C@H](Cc2cccnc2)NC(=O)[C@@H](NC(=O)[C@@H](N)Cc2ccc3ccccc3c2)CSSC[C@@H](C(=O)N[C@@H](Cc2ccc3ccccc3c2)C(N)=O)NC1=O	nM	48
CC(C)[C@H]1NC(=O)[C@H](CCCCN)NC(=O)[C@@H](Cc2c[nH]c3ccccc23)NC(=O)[C@H](Cc2cccnc2)NC(=O)[C@@H](NC(=O)[C@@H](N)Cc2ccc(Cl)cc2)CSSC[C@H](C(=O)N[C@@H](Cc2ccc3ccccc3c2)C(N)=O)NC1=O	nM	2.6
CC(C)[C@H]1NC(=O)[C@H](CCCCN)NC(=O)[C@@H](Cc2c[nH]c3ccccc23)NC(=O)[C@H](Cc2cccnc2)NC(=O)[C@@H](NC(=O)[C@@H](N)Cc2ccc3ccccc3c2)CSSC[C@H](C(=O)N[C@H](C(N)=O)C(c2ccccc2)c2ccccc2)NC1=O	nM	91

I. CC(C)(C)C[C@@H]1NC(=O)[C@H](CCCCN)NC(=O)[C@@H](Cc2c[nH]c3ccccc23)NC(=O)[C@H](Cc2cccnc2)NC(=O)C(NC(=O)[C@@H](N)Cc2ccc(Cl)cc2)CSSCC(C(=O)N[C@@H](Cc2ccc3ccccc3c2)C(N)=O)NC1=O (stereo in doubt)
II. CC(C)[C@H]1NC(=O)[C@H](CCCCN)NC(=O)[C@@H](Cc2c[nH]c3ccccc23)NC(=O)[C@H](Cc2c[nH]cn2)NC(=O)C(NC(=O)[C@@H](N)Cc2ccccc2F)CSSCC(C(=O)N[C@@H](Cc2ccccc2F)C(N)=O)NC1=O (stereo in doubt)
III. NCCCC[C@@H]1NC(=O)[C@@H](Cc2c[nH]c3ccccc23)NC(=O)[C@H](Cc2cccnc2)NC(=O)[C@@H](NC(=O)[C@@H](N)Cc2ccc3ccccc3c2)CSSC[C@@H](C(=O)N[C@@H](Cc2ccc3ccccc3c2)C(N)=O)NC(=O)CNC1=O
Prompt: Falling order of IC50, please. Order the labels as requested and give them as your answer.
Completion: III, II, I

P. CC(C)[C@H]1NC(=O)[C@H](CCCCN)NC(=O)[C@@H](Cc2c[nH]c3ccccc23)NC(=O)[C@H](Cc2c[nH]cn2)NC(=O)C(NC(=O)[C@@H](N)Cc2ccc(F)cc2)CSSCC(C(=O)N[C@@H](Cc2ccc(F)cc2)C(N)=O)NC1=O (stereo in doubt)
Q. CC(C)[C@H]1NC(=O)[C@H](CCCCN)NC(=O)[C@@H](Cc2c[nH]c3ccccc23)NC(=O)[C@H](Cc2cccnc2)NC(=O)[C@@H](NC(=O)[C@@H](N)Cc2ccc3ccccc3c2)CSSC[C@H](C(=O)N[C@@H](Cc2ccc(F)cc2)C(N)=O)NC1=O
R. CC(C)[C@H]1NC(=O)[C@H](CCCCN)NC(=O)[C@@H](Cc2c[nH]c3ccccc23)NC(=O)[C@H](Cc2ccccn2)NC(=O)[C@@H](NC(=O)[C@@H](N)Cc2c(F)c(F)c(F)c(F)c2F)CSSC[C@H](C(=O)N[C@@H](Cc2c(F)c(F)c(F)c(F)c2F)C(N)=O)NC1=O
S. C[C@@H](O)[C@@H]1NC(=O)[C@H](CCCCN)NC(=O)[C@@H](Cc2c[nH]c3ccccc23)NC(=O)[C@H](Cc2ccccc2)NC(=O)[C@@H](NC(=O)[C@@H](N)Cc2ccc(Cl)cc2)CSSC[C@@H](C(=O)N[C@@H](Cc2ccc3ccccc3c2)C(N)=O)NC1=O
Prompt: Could you please order the items by IC50, going from the lowest number to the highest? To answer, write out the labels according to the requested order.
Completion: S, P, Q, R
(S: 1.4 nM, P: 105 nM, Q: 150 nM, R: 765 nM)

1. CC(C)[C@H]1NC(=O)[C@H](CCCCN)NC(=O)[C@@H](Cc2c[nH]c3ccccc23)NC(=O)[C@H](Cc2cccnc2)NC(=O)[C@@H](NC(=O)[C@@H](N)Cc2ccccc2F)CSSC[C@H](C(=O)N[C@@H](Cc2ccccc2F)C(N)=O)NC1=O
2. CC(C)[C@H]1NC(=O)[C@H](CCCCN)NC(=O)[C@@H](Cc2c[nH]c3ccccc23)NC(=O)[C@H](Cc2cccnc2)NC(=O)[C@@H](NC(=O)[C@@H](N)Cc2ccc(Br)cc2)CSSC[C@H](C(=O)N[C@@H](Cc2ccc(Br)cc2)C(N)=O)NC1=O
Prompt: Larger number for IC50: 1 , or 2 ? Mark your selection by writing its label.
Completion: 1
